Origin of the recorded values: PubChem BioAssay (NCATS)

- Test system: TAB109
- testMethodNotes: qHTS profiling for inhibitors of Plasmodium falciparum proliferation (AID 504749); further: nearly all actives have a fitted effect of over 60% in size; further: potency means the concentration at half of the fitted maximal effect
- conditionSet: P. falciparum in erythrocytes, SYBR Green DNA, 72 h; series mostly up to 28.7 µM
Inconclusive results are not listed. Activity calls are given as the source filed them. The call rests on the fitted dose curve; in most records, active means well fitted inhibition curve with a large enough effect; inconclusive means small, poorly fitted or top-dose-only effect; inactive means flat fitted curve, though single readings scatter.
quantityName: Potency

| compound | quantityName | readoutValue |
| --- | --- | --- |
| CCCCc1ncc(/C=C(\Cc2cccs2)C(=O)O)n1Cc1ccc(C(=O)O)cc1 | Potency | inactive |
| COc1cc(C)c(Cc2cnc(N)nc2N)cc1OC | Potency | inactive |
| CC(C)(C)C(=O)NCCCC(=O)O | Potency | inactive |
| CCC(=O)c1ccc(O)cc1 | Potency | inactive |
| CNC(=O)Oc1ccc2c(c1)[C@]1(C)CCN(C)[C@@H]1N2C | Potency | 2.24 µM (active) |
| CC1(C)[C@@H]2CC[C@@]1(C)C(=O)C2 | Potency | inactive |
| Cc1ccc2nc(N)[nH]c(=O)c2c1Sc1ccncc1 | Potency | 7.08 µM (active) |
| CNCCCC1c2ccccc2C=Cc2ccccc21 | Potency | inactive |
| Nc1ncnc2c1ncn2[C@@H]1O[C@H](CO)[C@@H](O)[C@H]1O | Potency | inactive |
| O=c1cc[nH]c(=O)[nH]1 | Potency | inactive |
| CCCCOC(=O)c1ccc(O)cc1 | Potency | inactive |
| Cc1cc(O)cc2c1O[C@](C)(CCC[C@H](C)CCC[C@H](C)CCCC(C)C)CC2 | Potency | inactive |
| O=C(O)c1ccccn1 | Potency | inactive |
| Cc1cc(CC(=O)O)n(C)c1C(=O)c1ccc(Cl)cc1 | Potency | inactive |
| CC(CN1c2ccccc2Sc2ccccc21)N(C)C (stereo not given) | Potency | inactive |
| CCCCCCCCCCCCCCCC(=O)NCCO | Potency | inactive |
| Cc1c(Cl)cccc1Nc1ccccc1C(=O)O | Potency | inactive |
| O=C(O)CN1C(=O)c2cccc3cccc(c23)C1=O | Potency | inactive |
| Nc1ccc(S(=O)(=O)Nc2nccs2)cc1 | Potency | inactive |
| COc1ccc2c(c1)C(=O)N(CCc1ccc(S(=O)(=O)NC(=O)NC3CCCCC3)cc1)C(=O)C2(C)C | Potency | inactive |
| CCN(CC)CCNC(=O)c1cc(Cl)c(N)cc1OC | Potency | inactive |
| C[C@@H]1CN(c2c(F)c(F)c3c(=O)c(C(=O)O)cn(C4CC4)c3c2F)C[C@H](C)N1 | Potency | inactive |
| CC1(C)CO[C@@H](CC(=O)O)CN1 | Potency | inactive |
| CC(=O)c1ccc2c(c1)N(CCCN(C)C)c1ccccc1S2 | Potency | inactive |
| C[C@H]1O[C@@H](n2cc(F)c(=O)[nH]c2=O)[C@H](O)[C@@H]1O | Potency | inactive |

###

- testMethodNotes: qHTS assay for small molecule antagonists of retinoid X receptor alpha signaling (AID 588546);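 further: cells stimulated with 9-cis-retinoic acid as agonist; on the % scale 0 is the no-effect control and ±100 the full control effect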
- conditionSet: HEK293T RXRa-UAS-bla, beta-lactamase ratio, antagonist mode; measured here: W530 green channel, cytotoxicity proxy
- Source text: NIH Chemical Genomics Center [NCGC] U.S. Environmental Protection Agency [EPA] National Institutes of Environmental Health Sciences [NIEHS] National Toxicology Program [NTP] NCGC Assay Overview The Retinoid X receptor (RXR), a nuclear hormone receptor is expressed in liver, spleen, placenta, epidermis, central nervous system. […]
Inconclusive results are not listed.

| compound | uom | max response |
| --- | --- | --- |
| [Cl][In]([Cl])[Cl] | % | -2.25 |
| CCOC(=O)c1ccc(O)cc1 | % | -7.61 |
| CCCCC(CC)COC(=O)c1ccccc1O (stereo not drawn) | % | -3.04 |
| Nc1ccc(S(=O)(=O)Nc2nccs2)cc1 | % | -9.52 |
| C[C@]12C[C@H](O)[C@H]3[C@@H](CCC4=CC(=O)CC[C@@]43C)[C@@H]1CC[C@@H]2C(=O)CO | % | 12.2 |
| CN(C)CCCN1c2ccccc2Sc2ccc(Cl)cc21 | % | -6.45 |
| CNC(=O)Oc1ccc2c(c1)[C@]1(C)CCN(C)[C@@H]1N2C | % | -2.66 |
| COc1ccc(Cl)cc1C(=O)NCCc1ccc(S(=O)(=O)NC(=O)NC2CCCCC2)cc1 | % | 15.3 |
| O=C1c2c(O)cccc2Cc2cccc(O)c21 | % | -14.8 |
| NCCNCCNCCN | % | -7.08 |
| CC12CCC(CC1)C(C)(C)O2 | % | -6.73 |
| COC(=O)C1=C(C)NC(C)=C(C(=O)OC)C1c1ccccc1[N+](=O)[O-] | % | 8.81 |
